Listing of recorded GI50 by entry.
# procedure.summary: Cytotoxicity against human A549 cells assessed as growth inhibition by MTT assay
# Type: cell-based
All answers are understood in mg/L, so give the number only.

Cc1ccc(-c2nc(S)nc(O)c2C#N)cc1	86.7
CCCCCCCc1cc2c(=O)n(CCSc3nc(-c4cc(OC)c(OC)c(OC)c4)c(C#N)c(=O)[nH]3)cnc2s1	79.7
N#Cc1c(-c2ccc(O)cc2)[nH]c(=S)[nH]c1=O	87.4

*Q* Give the value of GI50 reported for the following: "COc1cc(-c2nc(SCCCn3cnc4sc5c(c4c3=O)CCCC5)[nH]c(=O)c2C#N)cc(OC)c1OC"
*A* 91.4

*Q* Give the value of GI50 reported for the following: "COc1cc(-c2nc(SCCCn3cnc4sc5c(c4c3=O)CCCC5)n(CCCn3cnc4sc5c(c4c3=O)CCCC5)c(=O)c2C#N)cc(OC)c1OC"
*A* 83.1
